- Tested on: HepG2
- Assay summary: cytotoxicity call (relative viability < 0.9)
- Conditions: 10 µM
In all, about 39,000 compounds went through this assay and about 3,300 (8.5%) were called active. Shown is part of a subset that was picked to be rich in actives.
Possible outcomes: active, inactive

Compound structure | Classification
C[C@H]1CN([C@@H](C)CO)C(=O)c2cc(C#Cc3ccccc3)cnc2O[C@H]1CN(C)S(=O)(=O)c1ccccc1F | inactive
C[C@@H]1CN([C@@H](C)CO)C(=O)c2cc(C#Cc3ccccc3)cnc2O[C@@H]1CN(C)S(=O)(=O)c1ccccc1F | active
C[C@@H]1CN([C@H](C)CO)C(=O)c2cc(C#Cc3ccccc3)cnc2O[C@@H]1CN(C)S(=O)(=O)c1ccccc1F | inactive
C[C@@H]1CCCCO[C@H](CN(C)C(=O)NC2CCCCC2)[C@H](C)CN([C@@H](C)CO)C(=O)c2cc(NC(=O)Cc3ccccc3)ccc2O1 | inactive
C[C@@H]1CN([C@H](C)CO)C(=O)c2cc(C#Cc3ccccc3F)cnc2O[C@H]1CN(C)S(=O)(=O)c1ccccc1F | inactive
C[C@H]1CN([C@@H](C)CO)C(=O)c2cc(C#Cc3ccccc3F)cnc2O[C@@H]1CN(C)S(=O)(=O)c1ccccc1F | inactive
C[C@@H]1CCCCO[C@@H](CN(C)Cc2ccncc2)[C@H](C)CN([C@@H](C)CO)C(=O)c2cc(NC(=O)Nc3ccccc3)ccc2O1 | inactive

* * *

- System: HepG2
- Assay summary: cytotoxicity call (relative viability < 0.9)
- Conditions: 10 µM
Hit rate of the full screen: of about 39,000 compounds, about 3,300 (8.5%) were called active. Only a selection was taken, and actives are over-represented in it overall.
Labels: TRUE for active, FALSE for inactive

Compound | Classification
O=C(CCN1CCNCC1)N1CCCCC1 | FALSE
O=C(C[C@H]1CC[C@H]2[C@@H](COC[C@H](O)CN2S(=O)(=O)c2cccc(F)c2)O1)NCCCN1CCOCC1 | FALSE
COc1cccc(S(=O)(=O)Nc2ccc3c(c2)[C@H]2C[C@H](CC(=O)N4CCCCC4)O[C@H](CO)[C@H]2O3)c1 | FALSE
C#CCN1C(=O)N(C(=O)c2ccccc2)[C@@]2(COCc3ccc(OC)cc3)Oc3ccccc3[C@@H]1[C@H]2CO[Si](C)(C)C(C)(C)C | FALSE
COc1c2occc2c(OC)c2c(=O)cc(C)oc12 | TRUE
COc1c2ccoc2cc2oc(C)cc(=O)c12 | FALSE
COc1c2ccoc2cc2oc(=O)ccc12 | FALSE
C[C@@H]1CN([C@@H](C)CO)C(=O)Cc2cc(NC(=O)c3ccncc3)ccc2O[C@H]1CN(C)S(=O)(=O)c1ccc(F)cc1 | FALSE
COc1cc2ccc(=O)oc2c(OC)c1OC | FALSE
C[C@@H]1CCCCO[C@@H](CN(C)Cc2ccc3c(c2)OCO3)[C@@H](C)CN([C@@H](C)CO)C(=O)c2cc(NC(=O)Nc3ccc(F)cc3)ccc2O1 | FALSE
CNCc1nc(C)no1 | FALSE
O=c1ccc2cc3ccoc3cc2o1 | FALSE
COc1c2occc2cc2ccc(=O)oc12 | TRUE
COc1cccc(S(=O)(=O)N[C@H]2CC[C@@H](CC(=O)NC3CCC3)O[C@@H]2CO)c1 | FALSE
C[C@@H]1CN([C@H](C)CO)C(=O)c2cc(NC(=O)Nc3ccc(F)cc3)ccc2O[C@@H](C)CCCCO[C@@H]1CN(C)Cc1ccc2c(c1)OCO2 | FALSE
CC1C(=O)CCC2C1(C)CCC1C2(C)CCC2(C)C3CC(C)(C)CCC3(C)CCC12C (centres undefined) | FALSE
Cc1ccc(S(=O)(=O)Nc2ccc3c(c2)CC(=O)N([C@@H](C)CO)C[C@@H](C)[C@@H](CN(C)Cc2ccc(C(F)(F)F)cc2)O3)cc1 | TRUE
C[C@@H]1CN([C@H](C)CO)C(=O)c2cc(NC(=O)Nc3ccc(F)cc3)ccc2O[C@@H](C)CCCCO[C@H]1CN(C)Cc1ccc2c(c1)OCO2 | TRUE
O=C(C[C@H]1C[C@H]2c3cc(NC(=O)Nc4ccc(C(F)(F)F)cc4)ccc3O[C@H]2[C@H](CO)O1)NCCc1ccccc1 | FALSE

* * *

- System: HepG2
- Assay summary: cytotoxicity call (relative viability < 0.9)
- Conditions: 10 µM
The whole screen tested about 39,000 compounds, of which about 3,300 (8.5%) were called active. This excerpt belongs to a sample that is enriched for actives.
Outcomes: 1 = active, 0 = inactive

Compound structure | Classification
C[C@@H]1CN([C@H](C)CO)C(=O)Cc2cc(NS(=O)(=O)c3ccc(F)cc3)ccc2O[C@@H]1CN(C)Cc1ccc(Oc2ccccc2)cc1 | 1
C[C@H](CO)N1C[C@H](C)[C@H](CN(C)C(=O)c2cccnc2)Oc2cc(C#CC3(O)CCCC3)ccc2S1(=O)=O | 0
C[C@@H]1CCCCO[C@H](CN(C)Cc2ccncc2)[C@@H](C)CN([C@H](C)CO)C(=O)c2cc(NC(=O)C3CCCCC3)ccc2O1 | 0
C[C@@H]1CCCCO[C@H](CN(C)Cc2ccc(C(F)(F)F)cc2)[C@@H](C)CN([C@H](C)CO)C(=O)c2cc(NC(=O)C3CCCCC3)ccc2O1 | 1
C[C@@H]1CN([C@H](C)CO)C(=O)c2cccc(NS(=O)(=O)c3ccccc3)c2O[C@@H]1CN(C)S(=O)(=O)c1ccccc1 | 0
COCC(=O)Nc1ccc2c(c1)C(=O)N(C)C[C@H](OC)[C@@H](C)CN(C(=O)c1ccccc1F)[C@H](C)CO2 | 0
C[C@@H]1CCCCO[C@H](CN(C)Cc2ccncc2)[C@H](C)CN([C@@H](C)CO)C(=O)c2cc(NC(=O)C3CCCCC3)ccc2O1 | 1

* * *

- Test system: HepG2
- Assay summary: cytotoxicity call (relative viability < 0.9)
- Conditions: 10 µM
Out of some 39,000 compounds screened, about 3,300 (8.5%) were called active. Only a selection was taken, and actives are over-represented in it overall.
Possible outcomes: yes (active), no (inactive)

Compound structure | Classification
C[C@H]1CN([C@@H](C)CO)C(=O)c2cc(NC(=O)Nc3cccc4ccccc34)ccc2O[C@H]1CN(C)C(=O)Nc1cccc2ccccc12 | no
Cc1noc(C)c1S(=O)(=O)Nc1ccc2c(c1)CC(=O)N([C@H](C)CO)C[C@H](C)[C@@H](CN(C)Cc1ccc(-c3ccccc3)cc1)O2 | yes
Cc1noc(C)c1S(=O)(=O)Nc1ccc2c(c1)CC(=O)N([C@@H](C)CO)C[C@@H](C)[C@@H](CN(C)Cc1ccc3c(c1)OCO3)O2 | no
N#CCCn1c(CC(N)=O)nc2ccccc21 | no
Cc1noc(C)c1S(=O)(=O)Nc1ccc2c(c1)CC(=O)N([C@H](C)CO)C[C@@H](C)[C@@H](CN(C)Cc1ccc(Oc3ccccc3)cc1)O2 | no
Cc1noc(C)c1S(=O)(=O)Nc1ccc2c(c1)CC(=O)N([C@H](C)CO)C[C@@H](C)[C@H](CN(C)Cc1ccc(-c3ccccc3)cc1)O2 | no
O=C(C[C@H]1CC[C@H]2[C@@H](COC[C@@H](O)CN2S(=O)(=O)c2ccc(F)cc2)O1)N1CCc2ccccc2C1 | no
Cc1cc(Nc2cc(C)on2)nc([C@H]2CCN(C(=O)CN)C2)n1 | no

* * *

- System: HepG2
- Assay summary: cytotoxicity call (relative viability < 0.9)
- Conditions: 10 µM
Among all 39,000 compounds or so, about 3,300 (8.5%) were called active. The sample as a whole holds a higher share of actives than the screen did.
Labels: 1.0 (active), 0.0 (inactive)

Compound structure | Classification
CCOC(=O)[C@H]1C/C=C/C[C@H](C(=O)OCC)C(=O)O[C@H]2[C@@H](OC)O[C@H](CO)[C@@H](OC(=O)c3c(OC)cccc3OC)[C@@H]2OC1=O | 0.0
CCOC(=O)[C@H]1C/C=C/C[C@H](C(=O)OCC)C(=O)O[C@H]2[C@@H](OC)O[C@H](CO)[C@@H](OC(=O)Nc3ccc(Br)cc3)[C@@H]2OC1=O | 1.0
O=C(C[C@@H]1CC[C@@H](NS(=O)(=O)c2ccccc2F)[C@@H](CO)O1)NCCCN1CCOCC1 | 0.0
Cc1ccc(S(=O)(=O)N2C[C@@H](O)COC[C@@H]3O[C@H](CC(=O)NCc4ccc(Cl)c(Cl)c4)CC[C@H]32)cc1 | 0.0
Cc1ccc(S(=O)(=O)N2C[C@@H](O)COC[C@@H]3O[C@@H](CC(=O)NCc4ccc(Cl)c(Cl)c4)CC[C@H]32)cc1 | 1.0
Cc1ccc(S(=O)(=O)N2C[C@@H](O)COC[C@H]3O[C@@H](CC(=O)NCc4ccc(Cl)c(Cl)c4)CC[C@@H]32)cc1 | 0.0
CO[C@H]1O[C@H](CO)[C@@H](OC(=O)Nc2ccc3c(c2)OCO3)[C@@H]2OC(=O)[C@H](Cc3cccc(Br)c3)C/C=C/C[C@@H](Cc3cccc(Br)c3)C(=O)O[C@@H]12 | 0.0
O=C(NCCN1CCOCC1)[C@@H]1c2ccccc2C(=O)N(C2Cc3ccccc3C2)[C@H]1c1ccc(CO)cc1 | 0.0
Cc1cc(C(=O)Nc2cccc3c2O[C@@H](CN(C)S(=O)(=O)c2cccs2)[C@@H](C)CN([C@@H](C)CO)C3=O)n(C)n1 | 0.0
COc1ccc(S(=O)(=O)Nc2ccc3c(c2)C(=O)N([C@H](C)CO)C[C@H](C)[C@@H](CN(C)C(=O)c2ccccc2)OCCCC[C@@H](C)O3)cc1 | 0.0
CO[C@H]1O[C@H](CO)[C@@H](OC(=O)Nc2cccc(F)c2)[C@@H]2OC(=O)[C@H](Cc3cccc(Br)c3)C/C=C/C[C@@H](Cc3cccc(Br)c3)C(=O)O[C@@H]12 | 0.0
C[C@@H]1CCCCO[C@@H](CN(C)CC2CCCCC2)[C@H](C)CN([C@H](C)CO)C(=O)c2cc(NS(=O)(=O)c3ccccc3)ccc2O1 | 0.0
Cc1ccc(S(=O)(=O)N2C[C@H](O)COC[C@@H]3O[C@H](CC(=O)NCc4ccc(Cl)c(Cl)c4)CC[C@H]32)cc1 | 1.0
COc1ccc(S(=O)(=O)Nc2ccc3c(c2)C(=O)N([C@H](C)CO)C[C@@H](C)[C@@H](CN(C)C(=O)Nc2cccc4ccccc24)O3)cc1 | 0.0
CN(C)CC(=O)N[C@H]1CC[C@H](CC(=O)NCCN2CCCCC2)O[C@H]1CO | 0.0
COc1ccc(-c2cc(=O)c3c(O)cc(O[C@@H]4O[C@H](CO)[C@@H](O)[C@H](O)[C@H]4O[C@@H]4O[C@H](COC(C)=O)[C@@H](O)[C@@H](O)[C@H]4O)c(O)c3o2)cc1 | 0.0
CN(C)CCCNC(=O)C[C@@H]1CC[C@@H]2[C@H](COC[C@H](O)CN2S(=O)(=O)c2ccc(Cl)cc2)O1 | 0.0
C[C@@H]1CN([C@@H](C)CO)C(=O)c2cccc(NC(=O)c3ccc(-c4nccs4)cc3)c2O[C@@H]1CN(C)Cc1ccc(Oc2ccccc2)cc1 | 0.0
